B1: CPEB3 Ribozyme (parent)
chain: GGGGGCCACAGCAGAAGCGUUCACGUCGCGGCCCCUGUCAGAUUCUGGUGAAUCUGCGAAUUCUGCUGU

# Variants of: B1
# protocolDescription: self-cleavage, relative activity (ratio to wild type); higher = more cleavage; co-transcriptional
Tag: label 1 if measured self-cleavage is not below 0.4, label 0 if it is.

Study these solved cases before continuing.
Q) Please tell me: is the variant U49G C63U at or over 0.4 in terms of self-cleavage?
A) label 1

Q) Please tell me: is the variant A16G G48U at or over 0.4 in terms of self-cleavage?
A) label 1

Q) Please tell me: is the variant C7A U61C at or over 0.4 in terms of self-cleavage?
A) label 0

Q) Please tell me: is the variant C45U G50C at or over 0.4 in terms of self-cleavage?
A) label 1

Q) Please tell me: is the variant G56C U67G at or over 0.4 in terms of self-cleavage?
A) label 1

New cases:
Q) Please tell me: is the variant G3U A40U at or over 0.4 in terms of self-cleavage?
A) label 0

Q) Please tell me: is the variant A15U A60C at or over 0.4 in terms of self-cleavage?
A) label 0

Q) Please tell me: is the variant U46A G48U at or over 0.4 in terms of self-cleavage?
A) label 1

Q) Please tell me: is the variant G1U C54A at or over 0.4 in terms of self-cleavage?
A) label 0

Q) Please tell me: is the variant C6U C12U at or over 0.4 in terms of self-cleavage?
A) label 1

Q) Please tell me: is the variant G19A G31C at or over 0.4 in terms of self-cleavage?
A) label 0

Q) Please tell me: is the variant G30A A40G at or over 0.4 in terms of self-cleavage?
A) label 1

Q) Please tell me: is the variant U38C C54U at or over 0.4 in terms of self-cleavage?
A) label 1

Q) Please tell me: is the variant A59G U69A at or over 0.4 in terms of self-cleavage?
A) label 1

Q) Please tell me: is the variant U38C U64G at or over 0.4 in terms of self-cleavage?
A) label 1

Q) Please tell me: is the variant G19C G28C at or over 0.4 in terms of self-cleavage?
A) label 0
